Source of measurements: the SangsterLogP compilation

- protocol: method code SF, from Hansch, C. & Leo, A. (1987). Log P database [Dataset]. Pomona College Medicinal Chemistry Project.
Documented logP across a set of compounds
// response body must contain only the number

O=C(COc1ccccc1)N1CCCCC1 :: 1.81
CCCOC=O :: 0.83

Ask: What measured logP goes with CCC(C)NC(=O)C=C(Br)c1ccc(Cl)cc1 (configuration not stated) ?
Result: 3.9

Ask: What measured logP goes with `Cc1ccc2[nH]c(CCc3nc4cc(C)ccc4[nH]3)nc2c1` ?
Result: 1.39

Ask: What measured logP goes with `Cc1ccc(S(=O)(=O)F)cc1` ?
Result: 2.74

Ask: What measured logP goes with `CN(C)c1ncnc2sccc12` ?
Result: 1.82

Ask: What measured logP goes with CNP(=O)(OC)Oc1ccc(Cl)cc1 (configuration not stated) ?
Result: 1.85

* * *

- protocol: method code SF, from Hansch, C. & Leo, A. (1987). Log P database [Dataset]. Pomona College Medicinal Chemistry Project.
measured attribute: logP

Ask: What measured logP goes with `COc1ccc(C(N)=O)cc1/N=N/N(C)C` ?
Result: 0.44

Ask: What measured logP goes with `O=c1[nH]c(=O)n([C@H]2C[C@H](O)[C@@H](CO)O2)cc1F` ?
Result: -1.16

Ask: What measured logP goes with `NC(=O)CBr` ?
Result: -0.52

Ask: What measured logP goes with `CCc1ccsc1` ?
Result: 2.82

Ask: What measured logP goes with `CC(=O)N[C@@H]1CC(=O)N(c2ccc(Cl)cc2)C1=O` ?
Result: 0.75

Ask: What measured logP goes with `O=P(c1ccccc1)(c1ccccc1)c1ccccc1` ?
Result: 2.85

Ask: What measured logP goes with `Cc1cc(COc2ccccc2C(C)C)c(O)c(C(=O)O)c1` ?
Result: 4.91

Ask: What measured logP goes with `Cn1ncc2cc([N+](=O)[O-])cc([N+](=O)[O-])c21` ?
Result: 1.63

Ask: What measured logP goes with `O=[N+]([O-])c1ccc(C(F)(F)F)cc1` ?
Result: 2.55

Ask: What measured logP goes with N/N=C1\c2ccccc2C(=O)C1C(=O)C(c1ccccc1)c1ccccc1 (stereo unspecified) ?
Result: 3.62

* * *

Documented logP across a set of compounds
- protocol: method code SF, from Hansch, C. & Leo, A. (1987). Log P database [Dataset]. Pomona College Medicinal Chemistry Project.

Please review the entries below; each comes with its answer.
Cc1ccco1 :: 1.85
CNC(=O)N(C)c1ccccc1 :: 1.02
CN(N=O)C(=O)N[C@H]1C(O)O[C@H](CO)[C@@H](O)[C@@H]1O (some centres undefined) :: -1.45
CN(C)/N=N/c1cn([C@@H]2O[C@H](CO)[C@@H](O)[C@H]2O)c(=O)[nH]c1=O :: -1.82

Ask: What measured logP goes with `OCCOc1c(Br)cc(Br)cc1Br` ?
Result: 3.42

Ask: What measured logP goes with `O=C(OCCOCCO)c1ccccc1` ?
Result: 1.16

Ask: What measured logP goes with `Sc1ncccn1` ?
Result: -0.97

Ask: What measured logP goes with CCOC(=Cc1ccccc1)C(=O)NC(C)CC (centres undefined) ?
Result: 3.2

Ask: What measured logP goes with `O=C1CCCN1CCOc1ccc([N+](=O)[O-])cc1` ?
Result: 1.33
